# Target: Egl nine homolog 1 (Homo sapiens)
# Sequence (Q9GZT9 whole entry): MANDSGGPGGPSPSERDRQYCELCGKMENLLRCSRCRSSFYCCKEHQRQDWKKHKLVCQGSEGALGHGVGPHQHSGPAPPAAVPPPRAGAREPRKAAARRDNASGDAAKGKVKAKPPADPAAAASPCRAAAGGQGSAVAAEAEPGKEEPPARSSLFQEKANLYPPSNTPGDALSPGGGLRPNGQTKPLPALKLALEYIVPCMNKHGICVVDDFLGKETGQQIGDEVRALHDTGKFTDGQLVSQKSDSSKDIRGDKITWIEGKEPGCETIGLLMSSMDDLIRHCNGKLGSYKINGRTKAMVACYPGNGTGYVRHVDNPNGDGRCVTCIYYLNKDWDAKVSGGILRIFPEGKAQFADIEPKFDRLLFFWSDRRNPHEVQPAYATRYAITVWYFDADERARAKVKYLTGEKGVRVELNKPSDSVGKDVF
# Protocol Summary: For example, a HIF peptide for use in the HIF-PH assay is [methoxycoumarin]-[…]-amide. HIF-PH, e.g., HIF-PH2 (EGLN1), can be expressed in, e.g., insect Hi5 cells, and partially purified, e.g., through a SP ion exchange chromatography column.
pIC50: −log10 of the molar value.
Assay Readout: pIC50

>  <Smiles Str>
O=C(NCc1ccncc1)c1ncc2c(=O)n(Cc3ccccc3)ccc2c1O

>  <Recorded Result>
6.72

$$$$
